target.or.test.system: T1, hGP130-his (Sino Biological, Catalog #10974) (human, UniProt P40189 23-619)
T1 construct: Bought his-tagged cytokine receptor used as SPR analyte; also called human gp130 receptor subunit; IL6 receptor beta subunit; not shown: his tag
T1 sequence: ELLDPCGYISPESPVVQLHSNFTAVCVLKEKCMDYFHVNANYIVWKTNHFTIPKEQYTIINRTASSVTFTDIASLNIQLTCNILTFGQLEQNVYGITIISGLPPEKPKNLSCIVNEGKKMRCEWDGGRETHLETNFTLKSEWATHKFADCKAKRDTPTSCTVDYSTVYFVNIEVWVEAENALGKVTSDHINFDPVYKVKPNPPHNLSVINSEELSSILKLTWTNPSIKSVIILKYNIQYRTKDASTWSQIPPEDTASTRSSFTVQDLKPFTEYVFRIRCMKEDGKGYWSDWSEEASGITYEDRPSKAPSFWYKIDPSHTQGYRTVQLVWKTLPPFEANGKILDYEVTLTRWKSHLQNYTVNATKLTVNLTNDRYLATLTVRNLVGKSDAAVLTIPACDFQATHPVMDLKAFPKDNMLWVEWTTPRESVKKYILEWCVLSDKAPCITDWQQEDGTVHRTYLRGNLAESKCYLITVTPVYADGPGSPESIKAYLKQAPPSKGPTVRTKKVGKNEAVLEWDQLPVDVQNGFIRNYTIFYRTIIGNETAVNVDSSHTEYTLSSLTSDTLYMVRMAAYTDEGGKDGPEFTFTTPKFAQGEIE
protocol: SPR Biacore T200; mono-Fc VHH on Protein A chip, hGP130-his analyte
readout.type: kon (M⁻¹ s⁻¹)
Numbers only, in M⁻¹ s⁻¹.

{"columns": ["binder", "numeric.value"],
 "data": [
  ["15-DR592 (SEQ ID NO. 233), anti-hGP130 Mono-Fc VHH (Fc fusion, Mono-Fc VHH ligand captured on a Protein A chip; not shown: mono-Fc part) QVQLQESGGGSVQAGGSLRLSCTAPGFTSNSCGMDWYRQAPGKEREFVSSISTDGTTGYADSVKGRFTISKDKAKDTVYLQMNSLKPEDTGMYSCKTKDGTIATMELCDFGYWGQGTQVTVSS", 160000],
  ["19-DR596 (SEQ ID NO. 237), anti-hGP130 Mono-Fc VHH (Fc fusion, Mono-Fc VHH ligand captured on a Protein A chip; not shown: mono-Fc part) QVQLQESGGGLVQPGGSLRLSCTASGLTFDDSVMGWFRQAPGKGREAVSCISSSGANAFYADSVKGRFTISRDNAKNTLYLQMNSLKPEDTATYYCKRGHACAGYYPIPYDDYWGQGTQVTVSS", 190000],
  ["18-DR595 (SEQ ID NO. 236), anti-hGP130 Mono-Fc VHH (Fc fusion, Mono-Fc VHH ligand captured on a Protein A chip; not shown: mono-Fc part) QVQLQESGGGSVQAGGSLTLSCAASEYAYSTCNMGWYRQAPGKERELVSAFISDGSTYYADSVKGRFTITRDNAKNTVYLQMNSLKPEDTAIYYCSANCYRRLRNYWGQGTQVTVSS", 180000],
  ["16-DR593 (SEQ ID NO. 234), anti-hGP130 Mono-Fc VHH (Fc fusion, Mono-Fc VHH ligand captured on a Protein A chip; not shown: mono-Fc part) QVQLQESGGGSVQAGGSLRLSCAASGYPYSNGYMGWFRQAPGKEREGVATIYTGDGRTYYADSVKGRFTISRDNAKNTVDLQMSSLKPEDTAMYYCAARAAPLYSSGSPLTRARYNVWGQGTQVTVSS", 250000],
  ["14-DR591 (SEQ ID NO. 232), anti-hGP130 Mono-Fc VHH (Fc fusion, Tested as Mono-Fc VHH ligand captured on a Protein A chip; not shown: mono-Fc part) QVQLQESGGGSVQAGGSLRLSCTASGAIASGYIDSRWCMAWFRQAPGKEREGVAAIWPGGGLTVYADSVKGRFTISRDHAKNTLYLQMNNLKPEDTAMYYCAAGSPRMCPSLEFGFDYWGQGTQVTVSS", 59000]
]}

// switching to the query binder
**Query** Suppose we examine the binder 17-DR594 (SEQ ID NO. 235), anti-hGP130 Mono-Fc VHH (Fc fusion, Mono-Fc VHH ligand captured on a Protein A chip; not shown: mono-Fc part) QVQLQESGGGSVQAGGSLRLSCVASASTYCTYDMHWYRQAPGKGREFVSAIDSDGTTRYADSVKGRFTISQGTAKNTVYLQMNSLQPEDTAMYYCKTVCVVGSRWSDYWGQGTQVTVSS ; what kon value has been reported?
**Result** 160000
